Cytochrome P450 3A4 (Homo sapiens, UniProt P08684) measurements of IC50, listed per entry.
Sequence (P08684 whole entry): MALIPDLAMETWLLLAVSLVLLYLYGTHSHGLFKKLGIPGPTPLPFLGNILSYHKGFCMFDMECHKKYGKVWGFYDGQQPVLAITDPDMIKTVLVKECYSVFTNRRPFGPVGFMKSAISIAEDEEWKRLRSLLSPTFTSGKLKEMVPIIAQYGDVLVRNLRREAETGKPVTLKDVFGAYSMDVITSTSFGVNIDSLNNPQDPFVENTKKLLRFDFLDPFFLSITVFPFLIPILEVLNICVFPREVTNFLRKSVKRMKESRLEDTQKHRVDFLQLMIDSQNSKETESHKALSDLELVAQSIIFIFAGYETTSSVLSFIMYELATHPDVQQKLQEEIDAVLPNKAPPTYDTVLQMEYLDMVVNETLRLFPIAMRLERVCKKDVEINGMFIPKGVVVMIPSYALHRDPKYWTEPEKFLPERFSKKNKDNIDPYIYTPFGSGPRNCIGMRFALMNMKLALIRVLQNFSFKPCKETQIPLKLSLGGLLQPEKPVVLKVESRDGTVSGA

Below, 4 compounds whose answers are already recorded.
CC(=O)NC[C@H]1CN(c2ccc(N3CCOCC3)c(F)c2)C(=O)O1 ... > 20 µM
O=C1O[C@@H](Cn2ccnn2)CN1c1ccc(-c2ccn3ncnc3c2)c(F)c1 ... > 20 µM
CC(=O)NC[C@H]1CN(c2ccc(-c3ccn4ccnc4c3)c(F)c2)C(=O)O1 ... > 20 µM
O=C1O[C@@H](Cn2ccnn2)CN1c1ccc(-c2ccn3ccnc3c2)c(F)c1 ... 15 µM

// moving on: another record for IC50
I looked up CC(=O)NC[C@H]1CN(c2ccc(-c3ccn4ncnc4c3)c(F)c2)C(=O)O1 and its IC50 for Cytochrome P450 3A4 (Homo sapiens, UniProt P08684) was > 20 µM

* * *

assayProcedure: Tmax in ICR mouse at 5.56 mg/kg, po by LC-MS/MS analysis
Format: ADME, organism-based
Parameters: dose 5.56 mg/kg, route oral
statedConditions: in vivo
readoutKind: Tmax (h)
Kindly provide the numeric value in h only, without the unit symbol.

Query CC(=O)NC[C@H]1CN(c2ccc(-c3ccn4ncnc4c3)c(F)c2)C(=O)O1 yields Tmax of 1

* * *

assayProcedure: AUC (infinity) in ICR mouse at 5.56 mg/kg, po by LC-MS/MS analysis
Format: ADME, organism-based
Parameters: time infinity, dose 5.56 mg/kg, route oral
statedConditions: plasma
readoutKind: AUC(0-inf) (ng·h/mL)
Kindly provide the numeric value in ng·h/mL only, without the unit symbol.

Query CC(=O)NC[C@H]1CN(c2ccc(-c3ccn4ncnc4c3)c(F)c2)C(=O)O1 yields AUC(0-inf) of 30900

* * *

Test system: Moraxella catarrhalis
assayProcedure: Antibacterial activity against Moraxella catarrhalis SR26840 clinical isolate assessed as […] by CLSI broth microdilution method
Assay type: functional
readoutKind: MIC (µg/mL)
Kindly provide the numeric value in µg/mL only, without the unit symbol.

Below, 2 compounds whose answers are already recorded.
CC(=O)NC[C@H]1CN(c2ccc(-c3ccc4cncn4c3)c(F)c2)C(=O)O1 ... 4
O=C1O[C@@H](Cn2ccnn2)CN1c1ccc(-c2ccc3nccn3c2)c(F)c1 ... 4

Query CC(=O)NC[C@H]1CN(c2ccc(-c3ccc4ncnn4c3)c(F)c2)C(=O)O1 yields MIC of 8

Query O=C1O[C@@H](Cn2ccnn2)CN1c1ccc(-c2ccn3ccnc3c2)c(F)c1 yields MIC of 2

Query O=C1O[C@@H](Cn2ccnn2)CN1c1ccc(-c2ccc3ncnn3c2)c(F)c1 yields MIC of 8

Query O=C1O[C@@H](Cn2ccnn2)CN1c1ccc(-c2ccn3ncnc3c2)c(F)c1 yields MIC of 4

* * *

Tested on: Staphylococcus aureus
assayProcedure: Ratio of linezolid MIC to compound MIC for Staphylococcus aureus Smith clinical isolate
Format: functional
readoutKind: Ratio
Write the number on its own, no unit after it.

Below, 4 molecules whose answers are already recorded.
CC(=O)NC[C@H]1CN(c2ccc(-c3ccn4ncnc4c3)c(F)c2)C(=O)O1 ... 4
CC(=O)NC[C@H]1CN(c2ccc(-c3ccc4cncn4c3)c(F)c2)C(=O)O1 ... 2
CC(=O)NC[C@H]1CN(c2ccc(-c3ccc4ncnn4c3)c(F)c2)C(=O)O1 ... 4
CC(=O)NC[C@H]1CN(c2ccc(-c3ccn4ccnc4c3)c(F)c2)C(=O)O1 ... 8

Query CC(=O)NC[C@H]1CN(c2ccc(-c3ccc4ccnn4c3)c(F)c2)C(=O)O1 yields Ratio of 4

Query CC(=O)NC[C@H]1CN(c2ccc(-c3ccc4nccn4c3)c(F)c2)C(=O)O1 yields Ratio of 2

* * *

Test system: Moraxella catarrhalis
assayProcedure: Antibacterial activity against Moraxella catarrhalis SR26840 clinical isolate assessed as […] by CLSI broth microdilution method
Type: functional
readoutKind: MIC (µg/mL)
Kindly provide the numeric value in µg/mL only, without the unit symbol.

CC(=O)NC[C@H]1CN(c2ccc(-c3ccn4ccnc4c3)c(F)c2)C(=O)O1 ... 2
CC(=O)NC[C@H]1CN(c2ccc(-c3ccc4nccn4c3)c(F)c2)C(=O)O1 ... 8
CC(=O)NC[C@H]1CN(c2ccc(-c3ccn4ncnc4c3)c(F)c2)C(=O)O1 ... 4
CC(=O)NC[C@H]1CN(c2ccc(N3CCOCC3)c(F)c2)C(=O)O1 ... 8

// moving on: another record for MIC
Query CC(=O)NC[C@H]1CN(c2ccc(-c3ccc4ccnn4c3)c(F)c2)C(=O)O1 yields MIC of 2

* * *

assayProcedure: Cmax in ICR mouse at 5.56 mg/kg, po by LC-MS/MS analysis
Type: ADME, organism-based
Design: dose 5.56 mg/kg, route oral
statedConditions: in vivo
readoutKind: Cmax
I'd appreciate it if you included the unit after the number.

Query CC(=O)NC[C@H]1CN(c2ccc(-c3ccn4ncnc4c3)c(F)c2)C(=O)O1 yields Cmax of 4780 ng/mL

* * *

Reported values of inhibition at 5 min, 30 µM for individual entries
experimentalTarget: UniProt P21396
Sequence (P21396 whole entry): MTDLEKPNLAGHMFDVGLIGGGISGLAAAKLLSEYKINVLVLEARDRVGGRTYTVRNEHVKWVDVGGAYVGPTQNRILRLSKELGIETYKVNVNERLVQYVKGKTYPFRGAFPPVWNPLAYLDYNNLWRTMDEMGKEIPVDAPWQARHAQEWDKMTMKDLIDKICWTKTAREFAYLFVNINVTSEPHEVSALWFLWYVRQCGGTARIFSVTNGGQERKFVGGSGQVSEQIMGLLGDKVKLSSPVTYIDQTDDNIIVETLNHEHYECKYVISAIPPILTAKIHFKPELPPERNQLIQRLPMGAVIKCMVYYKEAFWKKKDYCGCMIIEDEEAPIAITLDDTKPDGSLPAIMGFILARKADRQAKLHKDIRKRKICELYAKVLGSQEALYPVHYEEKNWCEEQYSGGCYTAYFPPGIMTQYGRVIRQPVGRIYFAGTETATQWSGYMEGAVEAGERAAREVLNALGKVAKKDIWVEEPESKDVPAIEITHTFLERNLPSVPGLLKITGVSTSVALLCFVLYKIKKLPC
assayProcedure: Inhibition of rat forebrain MAO-A using [14C]5-HT as substrate at 30 uM preincubated for 20 mins followed by substrate addition measured after 5 mins by liquid scintillation counting analysis
statedConditions: probe [14C]5-HT
Kindly provide the numeric value in % only, without the unit symbol.

O=C1O[C@@H](Cn2ccnn2)CN1c1ccc(-c2ccn3ncnc3c2)c(F)c1 ... 33.2
O=C1O[C@@H](Cn2ccnn2)CN1c1ccc(-c2ccn3ccnc3c2)c(F)c1 ... 41.2
CC(=O)NC[C@H]1CN(c2ccc(-c3ccn4ncnc4c3)c(F)c2)C(=O)O1 ... 55.9

// moving on: another record for inhibition at 5 min, 30 µM
Query CC(=O)NC[C@H]1CN(c2ccc(-c3ccn4ccnc4c3)c(F)c2)C(=O)O1 yields inhibition at 5 min, 30 µM of 54.8

* * *

experimentalTarget: MAO-B (Rattus norvegicus, UniProt P19643)
Sequence (P19643 whole entry): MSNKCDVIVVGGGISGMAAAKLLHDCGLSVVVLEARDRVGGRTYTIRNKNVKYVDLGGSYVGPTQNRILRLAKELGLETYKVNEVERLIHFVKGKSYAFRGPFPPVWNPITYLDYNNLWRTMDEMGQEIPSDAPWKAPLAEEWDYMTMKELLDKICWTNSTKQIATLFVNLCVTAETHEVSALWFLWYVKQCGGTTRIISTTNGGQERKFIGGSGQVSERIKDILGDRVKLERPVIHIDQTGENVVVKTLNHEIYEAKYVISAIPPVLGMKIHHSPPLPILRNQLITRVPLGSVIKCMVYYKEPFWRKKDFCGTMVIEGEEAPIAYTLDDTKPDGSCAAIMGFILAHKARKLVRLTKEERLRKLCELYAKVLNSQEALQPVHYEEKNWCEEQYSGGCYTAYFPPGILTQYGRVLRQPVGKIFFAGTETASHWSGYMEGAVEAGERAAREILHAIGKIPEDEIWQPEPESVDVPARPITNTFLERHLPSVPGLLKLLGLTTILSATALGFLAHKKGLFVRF
assayProcedure: Inhibition of rat forebrain MAO-B using [14C]PEA as substrate at 30 uM preincubated for 20 mins followed by substrate addition measured after 10 mins by liquid scintillation counting analysis
statedConditions: probe [14C]PEA
readoutKind: inhibition at 10 min, 30 µM (%)
Kindly provide the numeric value in % only, without the unit symbol.

Below, 3 compounds whose answers are already recorded.
CC(=O)NC[C@H]1CN(c2ccc(-c3ccn4ccnc4c3)c(F)c2)C(=O)O1 ... 52.8
O=C1O[C@@H](Cn2ccnn2)CN1c1ccc(-c2ccn3ncnc3c2)c(F)c1 ... 27.9
CC(=O)NC[C@H]1CN(c2ccc(-c3ccn4ncnc4c3)c(F)c2)C(=O)O1 ... 78.2

Query O=C1O[C@@H](Cn2ccnn2)CN1c1ccc(-c2ccn3ccnc3c2)c(F)c1 yields inhibition at 10 min, 30 µM of 26.7

* * *

assayProcedure: Cmax in ICR mouse at 67.7 mg/kg, po by LC-MS/MS analysis
Assay type: ADME, organism-based
Parameters: dose 67.7 mg/kg, route oral
statedConditions: in vivo
readoutKind: Cmax (ng/mL)
Kindly provide the numeric value in ng/mL only, without the unit symbol.

Query CC(=O)NC[C@H]1CN(c2ccc(N3CCOCC3)c(F)c2)C(=O)O1 yields Cmax of 37000

* * *

System: Haemophilus influenzae
assayProcedure: Antibacterial activity against Haemophilus influenzae SR27914 clinical isolate assessed as […] by CLSI broth microdilution method
Format: functional
readoutKind: MIC (µg/mL)
Kindly provide the numeric value in µg/mL only, without the unit symbol.

Below, 5 compounds whose answers are already recorded.
O=C1O[C@@H](Cn2ccnn2)CN1c1ccc(-c2ccc3ncnn3c2)c(F)c1 ... 4
CC(=O)NC[C@H]1CN(c2ccc(-c3ccn4ncnc4c3)c(F)c2)C(=O)O1 ... 4
CC(=O)NC[C@H]1CN(c2ccc(-c3ccc4cncn4c3)c(F)c2)C(=O)O1 ... 8
CC(=O)NC[C@H]1CN(c2ccc(-c3ccc4ccnn4c3)c(F)c2)C(=O)O1 ... 8
O=C1O[C@@H](Cn2ccnn2)CN1c1ccc(-c2ccn3ccnc3c2)c(F)c1 ... 2

Query O=C1O[C@@H](Cn2ccnn2)CN1c1ccc(-c2ccn3ncnc3c2)c(F)c1 yields MIC of 2

Query CC(=O)NC[C@H]1CN(c2ccc(-c3ccn4ccnc4c3)c(F)c2)C(=O)O1 yields MIC of 2

Query CC(=O)NC[C@H]1CN(c2ccc(-c3ccc4nccn4c3)c(F)c2)C(=O)O1 yields MIC of 4
